Items are presented alongside their recorded IC50.
target: BRM (Homo sapiens, UniProt P51531); assay: ATPase catalytic activity assay (ADP-Glo), BRM; conditions: BRM ATPase: IC50 (uM), 30 nM BRM, 400 μM ATP
Sequence (P51531 whole entry): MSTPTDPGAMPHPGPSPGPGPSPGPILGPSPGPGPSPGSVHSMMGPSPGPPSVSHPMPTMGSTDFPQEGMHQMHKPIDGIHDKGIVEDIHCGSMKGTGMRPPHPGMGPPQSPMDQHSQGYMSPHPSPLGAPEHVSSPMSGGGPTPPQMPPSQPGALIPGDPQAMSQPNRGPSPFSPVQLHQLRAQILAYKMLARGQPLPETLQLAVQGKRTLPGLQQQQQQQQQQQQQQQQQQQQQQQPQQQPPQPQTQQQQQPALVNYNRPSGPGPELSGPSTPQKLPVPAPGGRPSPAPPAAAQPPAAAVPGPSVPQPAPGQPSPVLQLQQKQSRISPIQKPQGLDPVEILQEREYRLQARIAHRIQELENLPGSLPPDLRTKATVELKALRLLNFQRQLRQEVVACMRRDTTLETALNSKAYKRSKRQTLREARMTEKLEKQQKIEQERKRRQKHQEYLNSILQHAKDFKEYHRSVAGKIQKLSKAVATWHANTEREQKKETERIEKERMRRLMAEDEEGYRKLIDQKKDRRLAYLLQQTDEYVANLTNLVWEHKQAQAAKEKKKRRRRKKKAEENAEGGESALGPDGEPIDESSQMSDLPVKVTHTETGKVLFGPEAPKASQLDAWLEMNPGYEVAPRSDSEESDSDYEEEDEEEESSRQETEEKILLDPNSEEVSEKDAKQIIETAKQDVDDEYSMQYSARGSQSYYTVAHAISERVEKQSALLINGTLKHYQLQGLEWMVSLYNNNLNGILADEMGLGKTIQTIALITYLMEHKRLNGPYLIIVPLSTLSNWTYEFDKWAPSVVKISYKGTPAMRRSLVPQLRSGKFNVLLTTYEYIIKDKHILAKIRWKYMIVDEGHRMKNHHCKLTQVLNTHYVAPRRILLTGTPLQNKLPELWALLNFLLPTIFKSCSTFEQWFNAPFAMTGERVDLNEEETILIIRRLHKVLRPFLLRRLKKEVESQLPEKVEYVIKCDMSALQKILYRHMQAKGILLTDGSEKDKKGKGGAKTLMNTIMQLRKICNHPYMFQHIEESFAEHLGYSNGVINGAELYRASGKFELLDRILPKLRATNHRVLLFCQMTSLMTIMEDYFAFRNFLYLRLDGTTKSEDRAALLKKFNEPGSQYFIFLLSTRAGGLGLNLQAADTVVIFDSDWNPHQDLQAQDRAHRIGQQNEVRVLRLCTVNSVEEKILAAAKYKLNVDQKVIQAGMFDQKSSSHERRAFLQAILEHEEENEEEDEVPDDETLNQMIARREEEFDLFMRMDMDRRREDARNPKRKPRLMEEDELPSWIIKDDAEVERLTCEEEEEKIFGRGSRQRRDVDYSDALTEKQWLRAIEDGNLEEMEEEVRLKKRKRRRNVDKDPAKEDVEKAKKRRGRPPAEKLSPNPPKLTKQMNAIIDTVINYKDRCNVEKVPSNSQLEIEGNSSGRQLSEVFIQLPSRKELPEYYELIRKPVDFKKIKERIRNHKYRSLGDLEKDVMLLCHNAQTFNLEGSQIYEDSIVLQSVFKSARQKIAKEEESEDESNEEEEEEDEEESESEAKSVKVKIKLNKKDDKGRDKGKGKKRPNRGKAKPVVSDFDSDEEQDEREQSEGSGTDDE

Consider the following illustrative entries.
{"Cpd smiles": "C[C@@]1(C#N)COCc2ccc(C(=O)NCc3cc4cc(-c5cccc(C6(O)CC6)n5)ccc4cn3)cc21", "IC50": "< 0.1 µM"}
{"Cpd smiles": "C[C@@]1(C#N)COCc2ccc(C(=O)NCc3cc(OCC4CCOCC4)ccn3)cc21", "IC50": "0.1 to 0.5 µM"}
{"Cpd smiles": "CN(C)c1cccc(-c2ccc3cnc(CNC(=O)c4cnc5c(c4)[C@@](F)(C(F)F)COC5)cc3n2)n1", "IC50": "< 0.1 µM"}
{"Cpd smiles": "C[C@@]1(C#N)COCc2ccc(C(=O)NCc3cc4nc(-c5cccc(N6CCCC6=O)n5)ccc4cn3)cc21", "IC50": "< 0.1 µM"}
{"Cpd smiles": "CN1CCCc2c(-c3ccc4cnc(CNC(=O)c5ccc6c(c5)[C@](C)(C#N)COC6)cc4n3)cccc21", "IC50": "0.1 to 0.5 µM"}

Query (compound): CN(C)c1cccn(-c2ccc3cnc(CNC(=O)c4ccc5c(c4)[C@](C)(C#N)COC5)cc3n2)c1=O ; field requested: IC50
0.1 to 0.5 µM

// IC50 lookup, key: C[C@@]1(C#N)COCc2ccc(C(=O)NCc3cc4nc(-c5ccnc(N6CC[C@H](F)C6)n5)ccc4cn3)cc21
< 0.1 µM
